Catalogue of binders with associated OD450 at 2 µg/mL
Target: T1, PD-1 protein (human, UniProt Q15116 25-167, limits assumed)
T1 construct: also called human PD-1
T1 sequence (Q15116 25-167 limits assumed): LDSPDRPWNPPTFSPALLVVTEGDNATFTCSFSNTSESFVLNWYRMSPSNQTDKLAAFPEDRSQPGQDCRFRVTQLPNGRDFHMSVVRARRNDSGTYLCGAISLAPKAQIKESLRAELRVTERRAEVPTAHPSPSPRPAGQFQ
Assay: ELISA, PD-1 coated
quantity_name: OD450 at 2 µg/mL

binder	quantity_name	result
504#SS16 (Fc fusion, not shown: a dimerising Fc or GST; small tags and cut ends, VHH-FC construct from HEK293 cells) VHH: EVQVVESGGGLVQAGGSLRLSCAVSGRTFSSYVMGWFRQAPGKERDFVAAISRSGGRTWYADSVKGRFTISFDNAKNTVYLQMNSLKPEDTASYYCNTDYTFAKLTAPDRRNDDWGQGTQVTVSS	OD450 at 2 µg/mL	0.05 OD450
504#SS10 (Fc fusion, not shown: a dimerising Fc or GST; small tags and cut ends, VHH-FC construct from HEK293 cells) VHH: EVQLVESGGGLVQPGASLRLSCTASGSIFSIYAMGWYRQAPGKQRELVAYITSGGSTTYADSVKGRFTISRDNAKNTVYLQMNSLKPEDTAVYYCNRGNYYRDYKPEFWGQGTQVTVSS	OD450 at 2 µg/mL	0.04 OD450
504#SS13 (Fc fusion, not shown: a dimerising Fc or GST; small tags and cut ends, VHH-FC construct from HEK293 cells) VHH: EVQVVESGGGSVQPGGSLRLSCAASGRGFTEHAMGWYRQSPGKEREFVAGISSGGSTYYADSVKGRFTVSRDSAGNTVALQMDSLKPEDTAVYYCSYKRGRYPDGVSTLEYWGQGTQVTVSS	OD450 at 2 µg/mL	0.03 OD450
504#SS7 (Fc fusion, VHH-FC construct from HEK293 cells; not shown: The (G4S)3 linker leading to it is left out with it) VHH: QVQLVESGGGLVQAGGSLTLSCAASGRTFNSYAMGWFRQAPGKEREFVAAISQNGGSQGYAEAVKDRFTISRDNTNKVVALQMNSLKPEDTAAYYCAADGDASDRSYAPPRDYKYEYWGQGTQVTVSS	OD450 at 2 µg/mL	1.07 OD450
504#SS12 (Fc fusion, not shown: a dimerising Fc or GST; small tags and cut ends, VHH-FC construct from HEK293 cells) VHH: EVQVVESGGGLVQPGGSLRLSCAVSGRGFSEHAMGWYRQSPGKQREFVAGVTSYGGTNYADSVKGRFTISRDNVGNTVFLQMNSLKPEDTAVYYCNYKRGHYPDGVSTYEYWGQGTQVTVSS	OD450 at 2 µg/mL	0.07 OD450
504#SS5 (Fc fusion, VHH-FC construct from HEK293 cells; not shown: The (G4S)3 linker leading to it is left out with it) VHH: QVQLVESGGGSAQAGGSLRLSCTASGRPFSIYDMGWFRQAPGKERESVAVINLSRGNTYYADSVKGRFTISLDSAKNTVYLQMNSLKPEDTAVYSCGVDRRQYGLGIPPLADYWGQGTQVTVSS	OD450 at 2 µg/mL	3.06 OD450
